# Tested on: K86415-001-R-J1-PDC complex spheroids, viability
# TEST DESCRIPTION: Anticancer human tumor K86415-001-R-J1-PDC patient-derived lung adenocarcinoma cell line growth inhibition [RAS]
# PROTOCOL CONDITIONS: second compound 0.0316 µM; first compound 0.000949 µM; active compounds read low
Recorded viability, T/C values for a group of molecules are listed next.
QUANTITY MEASURED: viability, T/C (%)

[
  {
    "MOLECULE": "CC1(C)CCC(Nc2ncc(C(F)(F)F)c(-c3c[nH]c4c(P(C)(C)=O)c(C#N)ccc34)n2)CN1 (centres undefined) + C=CC(=O)N1CCN(c2nc(OCC3CCCN3C)nc3c(F)c(-c4nc(N)cc(C)c4C(F)(F)F)c(Cl)cc23)C(C)C1",
    "UNIT STRING": "%",
    "RESULT VALUE": 12.8
  },
  {
    "MOLECULE": "CCc1c2c(nc3ccc(O)cc13)-c1cc3c(c(=O)n1C2)COC(=O)[C@]3(O)CC + C=CC(=O)N1CCN(c2nc(OCC3CCCN3C)nc3c(F)c(-c4nc(N)cc(C)c4C(F)(F)F)c(Cl)cc23)C(C)C1",
    "UNIT STRING": "%",
    "RESULT VALUE": 10.1
  },
  {
    "MOLECULE": "CC1(C)CCC(Nc2ncc(C(F)(F)F)c(-c3c[nH]c4c(P(C)(C)=O)c(C#N)ccc34)n2)CN1 (centres undefined) + C#Cc1c(F)ccc2cc(O)cc(-c3ncc4c(N5CC6CCC(C5)N6)nc(OCC56CCCN5CC(F)C6)nc4c3F)c12",
    "UNIT STRING": "%",
    "RESULT VALUE": 103
  },
  {
    "MOLECULE": "CCc1c2c(nc3ccc(O)cc13)-c1cc3c(c(=O)n1C2)COC(=O)[C@]3(O)CC + C#Cc1c(F)ccc2cc(O)cc(-c3ncc4c(N5CC6CCC(C5)N6)nc(OCC56CCCN5CC(F)C6)nc4c3F)c12",
    "UNIT STRING": "%",
    "RESULT VALUE": 93.6
  }
]

====

# Test system: K86415-001-R-J1-PDC complex spheroids, viability
# TEST DESCRIPTION: Anticancer human tumor K86415-001-R-J1-PDC cell line growth inhibition [RAS];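 further: spheroids exposed to agents for seven days before readout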
# PROTOCOL CONDITIONS: second compound 1 µM; first compound 0.3 µM; active compounds read low
Recorded viability, T/C values for a group of compounds are listed next.
QUANTITY MEASURED: viability, T/C

[
  {
    "COMPOUND": "CC1(C)CCC(Nc2ncc(C(F)(F)F)c(-c3c[nH]c4c(P(C)(C)=O)c(C#N)ccc34)n2)CN1 (centres undefined) + C#Cc1c(F)ccc2cc(O)cc(-c3ncc4c(N5CC6CCC(C5)N6)nc(OCC56CCCN5CC(F)C6)nc4c3F)c12",
    "RESULT VALUE": "65.5%"
  },
  {
    "COMPOUND": "CCc1c2c(nc3ccc(O)cc13)-c1cc3c(c(=O)n1C2)COC(=O)[C@]3(O)CC + C=CC(=O)N1CCN(c2nc(OCC3CCCN3C)nc3c(F)c(-c4nc(N)cc(C)c4C(F)(F)F)c(Cl)cc23)C(C)C1",
    "RESULT VALUE": "2.88%"
  },
  {
    "COMPOUND": "CCc1c2c(nc3ccc(O)cc13)-c1cc3c(c(=O)n1C2)COC(=O)[C@]3(O)CC + C#Cc1c(F)ccc2cc(O)cc(-c3ncc4c(N5CC6CCC(C5)N6)nc(OCC56CCCN5CC(F)C6)nc4c3F)c12",
    "RESULT VALUE": "6.31%"
  },
  {
    "COMPOUND": "CC1(C)CCC(Nc2ncc(C(F)(F)F)c(-c3c[nH]c4c(P(C)(C)=O)c(C#N)ccc34)n2)CN1 (centres undefined) + C=CC(=O)N1CCN(c2nc(OCC3CCCN3C)nc3c(F)c(-c4nc(N)cc(C)c4C(F)(F)F)c(Cl)cc23)C(C)C1",
    "RESULT VALUE": "14.9%"
  }
]

====

# Tested on: K86415-001-R-J1-PDC complex spheroids, viability
# TEST DESCRIPTION: Anticancer human tumor K86415-001-R-J1-PDC cell line growth inhibition [RAS]; active = viability on the fitted dose curve at most 10% of control; inactive = the rest;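 further: spheroids exposed to agents for seven days before readout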
# PROTOCOL CONDITIONS: second compound 0.03 µM; first compound 0.316 µM
Outcomes: active, inactive

[
  {
    "MOLECULE": "CCN1CCN(Cc2ccc(Nc3ncc(F)c(-c4cc(F)c5nc(C)n(C(C)C)c5c4)n3)nc2)CC1 + CCn1c(-c2cc(N3CCN(C)CC3)cnc2C(C)OC)c2c3cc(ccc31)-c1csc(n1)CC(NC(=O)C1CC1C)C(=O)N1CCCC(N1)C(=O)OCC(C)(C)C2",
    "ANSWER LABEL": "active"
  },
  {
    "MOLECULE": "CC1(O)CCCC1n1c(=O)c(C(F)F)cc2cnc(NC3CCN(S(C)(=O)=O)CC3)nc21 (centres undefined) + CCn1c(-c2cc(N3CCN(C)CC3)cnc2C(C)OC)c2c3cc(ccc31)-c1csc(n1)CC(NC(=O)C1CC1C)C(=O)N1CCCC(N1)C(=O)OCC(C)(C)C2",
    "ANSWER LABEL": "active"
  },
  {
    "MOLECULE": "CC(=O)OC12COC1CC(O)C1(C)C(=O)C(O)C3=C(C)C(OC(=O)C(O)C(NC(=O)OC(C)(C)C)c4ccccc4)CC(O)(C(OC(=O)c4ccccc4)C21)C3(C)C (centres undefined) + CCn1c(-c2cccnc2C(C)OC)c2c3cc(ccc31)N1CCOC(CC(NC(=O)C(C(C)C)N(C)C(=O)C3(F)CCN(C(=O)C#CC(C)(C)N(C)C)CC3)C(=O)N3CCCC(N3)C(=O)OCC(C)(C)C2)C1",
    "ANSWER LABEL": "inactive"
  },
  {
    "MOLECULE": "C[C@@H](NC(=O)c1ncnc(N)c1Cl)c1ncc(C(=O)Nc2cc(C(F)(F)F)c(Cl)cn2)s1 + CCn1c(-c2cc(N3CCN(C)CC3)cnc2C(C)OC)c2c3cc(ccc31)-c1csc(n1)CC(NC(=O)C1CC1C)C(=O)N1CCCC(N1)C(=O)OCC(C)(C)C2",
    "ANSWER LABEL": "active"
  }
]

====

# Test system: K86415-001-R-J1-PDC complex spheroids, viability
# TEST DESCRIPTION: Anticancer human tumor K86415-001-R-J1-PDC cell line growth inhibition [RAS];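 further: spheroids exposed to agents for seven days before readout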
# PROTOCOL CONDITIONS: second compound 0.00316 µM; first compound 3.16 µM; active compounds read low
Please use True for viability, T/C under 5% and False for everything else, ties included.

[
  {
    "COMPOUND": "CC1(O)CCCC1n1c(=O)c(C(F)F)cc2cnc(NC3CCN(S(C)(=O)=O)CC3)nc21 (stereo not drawn) + C=CC(=O)N1CCN(c2nc(OCC3CCCN3C)nc3c(F)c(-c4nc(N)cc(C)c4C(F)(F)F)c(Cl)cc23)C(C)C1",
    "ANSWER LABEL": "False"
  },
  {
    "COMPOUND": "CC(Nc1ccc2c(c1)OCCn1cc(N3C(=O)OCC3C(F)F)nc1-2)C(N)=O (stereo not drawn) + C=CC(=O)N1CCN(c2nc(OCC3CCCN3C)nc3c(F)c(-c4nc(N)cc(C)c4C(F)(F)F)c(Cl)cc23)C(C)C1",
    "ANSWER LABEL": "False"
  },
  {
    "COMPOUND": "CC(=O)OC12COC1CC(O)C1(C)C(=O)C(O)C3=C(C)C(OC(=O)C(O)C(NC(=O)OC(C)(C)C)c4ccccc4)CC(O)(C(OC(=O)c4ccccc4)C21)C3(C)C (stereo not drawn) + C=CC(=O)N1CCN(c2nc(OCC3CCCN3C)nc3c(F)c(-c4nc(N)cc(C)c4C(F)(F)F)c(Cl)cc23)C(C)C1",
    "ANSWER LABEL": "False"
  },
  {
    "COMPOUND": "CCC(CC)c1cc(NC2CCC(N)C2)n2nccc2n1 (stereo not drawn) + C=CC(=O)N1CCN(c2nc(OCC3CCCN3C)nc3c(F)c(-c4nc(N)cc(C)c4C(F)(F)F)c(Cl)cc23)C(C)C1",
    "ANSWER LABEL": "True"
  },
  {
    "COMPOUND": "C[C@@H](NC(=O)c1ncnc(N)c1Cl)c1ncc(C(=O)Nc2cc(C(F)(F)F)c(Cl)cn2)s1 + C=CC(=O)N1CCN(c2nc(OCC3CCCN3C)nc3c(F)c(-c4nc(N)cc(C)c4C(F)(F)F)c(Cl)cc23)C(C)C1",
    "ANSWER LABEL": "False"
  },
  {
    "COMPOUND": "Cc1nc(N2CCC3(CC2)COC(C)C3N)c(CO)nc1Sc1ccnc(N)c1Cl (stereo not drawn) + C=CC(=O)N1CCN(c2nc(OCC3CCCN3C)nc3c(F)c(-c4nc(N)cc(C)c4C(F)(F)F)c(Cl)cc23)C(C)C1",
    "ANSWER LABEL": "True"
  },
  {
    "COMPOUND": "CC(C)NCC(C(=O)N1CCN(c2ncnc3c2C(C)CC3O)CC1)c1ccc(Cl)cc1 (stereo not drawn) + C=CC(=O)N1CCN(c2nc(OCC3CCCN3C)nc3c(F)c(-c4nc(N)cc(C)c4C(F)(F)F)c(Cl)cc23)C(C)C1",
    "ANSWER LABEL": "False"
  }
]
